# assay.system: CDK4/cyclin D3 (Homo sapiens, UniProt P11802)
# Sequence (P11802 whole entry, species assumed): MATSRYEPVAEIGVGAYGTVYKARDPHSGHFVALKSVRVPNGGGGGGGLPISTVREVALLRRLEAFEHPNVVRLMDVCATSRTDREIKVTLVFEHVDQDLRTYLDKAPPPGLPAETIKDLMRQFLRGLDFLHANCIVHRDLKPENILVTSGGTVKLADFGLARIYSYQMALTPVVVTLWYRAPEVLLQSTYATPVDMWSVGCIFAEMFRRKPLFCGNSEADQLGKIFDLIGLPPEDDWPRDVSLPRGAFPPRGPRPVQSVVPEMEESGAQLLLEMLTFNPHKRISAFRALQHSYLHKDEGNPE
# Sequence (P30281 whole entry partner, species assumed): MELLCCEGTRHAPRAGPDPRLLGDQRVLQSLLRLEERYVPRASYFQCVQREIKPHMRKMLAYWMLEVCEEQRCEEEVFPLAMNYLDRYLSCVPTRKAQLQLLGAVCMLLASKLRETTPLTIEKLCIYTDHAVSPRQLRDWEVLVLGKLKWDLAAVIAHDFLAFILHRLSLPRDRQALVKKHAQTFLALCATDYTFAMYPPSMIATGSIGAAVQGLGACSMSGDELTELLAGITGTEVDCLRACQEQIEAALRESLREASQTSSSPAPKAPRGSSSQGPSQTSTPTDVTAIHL
# protocol.text: Kinase activity assay, Caliper Mobility Shift Assay, CDK4/cyclin D3
# assay.setup: 10 nM kinase, ATP 250 μM, 150 minutes at room temperature
Below: a set of entries, each annotated with reported IC50.
Your answer is read as nM, so omit the unit and give the number.

| smiles.input | display.unit | IC50 |
| --- | --- | --- |
| CC(C)c1noc2ccc3cnc(Nc4ccc(N5CCN(C)CC5)c(F)c4)nc3c12 | nM | 3 |

Now let's try a different one.
IN: Request the reported IC50 associated with "CCN1CCN(c2ccc(Nc3ncc4ccc5onc(C(C)C)c5c4n3)nc2)CC1"
OUT: 1

---

# assay.system: CDK4/cyclin D3 (Homo sapiens, UniProt P11802)
# protocol.text: Kinase activity assay, Caliper Mobility Shift Assay, CDK4/cyclin D3
# assay.setup: 10 nM kinase, ATP 250 μM, 150 minutes at room temperature
Below: a set of entries, each annotated with reported IC50.

| smiles.input | assay.system | measurement.name | result |
| --- | --- | --- | --- |
| CC(C)c1noc2c1-c1nc(Nc3ccc(N4CCOCC4)cn3)ncc1CC2 | CDK4/cyclin D3 (Homo sapiens, UniProt P11802) | IC50 | 63 nM |
| CC(C)c1noc2ccc3cnc(Nc4ccc(N5CCS(=O)(=O)CC5)cn4)nc3c12 | CDK4/cyclin D3 (Homo sapiens, UniProt P11802) | IC50 | 5 nM |
| CC(C)c1noc2ccc3cnc(Nc4ccc(C(=O)N5CCN(C)CC5)cc4)nc3c12 | CDK4/cyclin D3 (Homo sapiens, UniProt P11802) | IC50 | 1 nM |
| Cc1nc(Nc2ncc3ccc4onc(C(C)C)c4c3n2)ccc1N1CCNCC1 | CDK4/cyclin D3 (Homo sapiens, UniProt P11802) | IC50 | 8 nM |

IN: Request the reported IC50 associated with "CC(C)c1noc2ccc3cnc(Nc4ccc(N5CCNCC5)cc4)nc3c12"
OUT: 3 nM

IN: Request the reported IC50 associated with "CC(C)c1noc2ccc3cnc(Nc4ccc(N(CCN5CCOCC5)S(C)(=O)=O)cc4)nc3c12"
OUT: 2 nM

IN: Request the reported IC50 associated with "CCN1CCN(c2ccc(Nc3ncc4ccc5onc(C(C)C)c5c4n3)nc2C)CC1"
OUT: 36 nM

IN: Request the reported IC50 associated with "CC(C)c1noc2ccc3cnc(Nc4ccc(N5CCOCC5)c(F)c4)nc3c12"
OUT: 20 nM

---

# assay.system: CDK4/cyclin D3 (Homo sapiens)
# protocol.text: Kinase activity assay, Caliper Mobility Shift Assay, CDK4/cyclin D3
# assay.setup: 10 nM kinase, ATP 250 μM, 150 minutes at room temperature
pIC50: −log10 of the molar value.
Classification field: enter yes for pIC50 values not below 8, no for values below it.

Known results for compounds:
| compound | assigned.category |
| --- | --- |
| CN1CCN(c2ccc(Nc3ncc4ccc5onc(C6CCCC6)c5c4n3)nc2)CC1 [Compound I-23] | yes |
| CC(C)c1noc2ccc3cnc(Nc4ccc(N5CCN(C(C)C)CC5)cn4)nc3c12 [Compound I-9] | yes |
| COc1cc(N2CCN(C)CC2)ccc1Nc1ncc2ccc3onc(C(C)C)c3c2n1 [Compound I-31] | no |

IN: hey, is pIC50 for this one >= 8? CC(C)c1noc2ccc3cnc(Nc4ccc(N5CCOCC5)cn4)nc3c12 [Compound I-8]
OUT: yes

IN: hey, is pIC50 for this one >= 8? CC(C)c1noc2ccc3cnc(Nc4ccc(C(=O)N5CCNCC5)cc4)nc3c12 [Compound I-42]
OUT: yes
